- Target or test system: Cytosolic phospholipase A2 (Homo sapiens) (UniProt P47712)
- Sequence (P47712 whole entry): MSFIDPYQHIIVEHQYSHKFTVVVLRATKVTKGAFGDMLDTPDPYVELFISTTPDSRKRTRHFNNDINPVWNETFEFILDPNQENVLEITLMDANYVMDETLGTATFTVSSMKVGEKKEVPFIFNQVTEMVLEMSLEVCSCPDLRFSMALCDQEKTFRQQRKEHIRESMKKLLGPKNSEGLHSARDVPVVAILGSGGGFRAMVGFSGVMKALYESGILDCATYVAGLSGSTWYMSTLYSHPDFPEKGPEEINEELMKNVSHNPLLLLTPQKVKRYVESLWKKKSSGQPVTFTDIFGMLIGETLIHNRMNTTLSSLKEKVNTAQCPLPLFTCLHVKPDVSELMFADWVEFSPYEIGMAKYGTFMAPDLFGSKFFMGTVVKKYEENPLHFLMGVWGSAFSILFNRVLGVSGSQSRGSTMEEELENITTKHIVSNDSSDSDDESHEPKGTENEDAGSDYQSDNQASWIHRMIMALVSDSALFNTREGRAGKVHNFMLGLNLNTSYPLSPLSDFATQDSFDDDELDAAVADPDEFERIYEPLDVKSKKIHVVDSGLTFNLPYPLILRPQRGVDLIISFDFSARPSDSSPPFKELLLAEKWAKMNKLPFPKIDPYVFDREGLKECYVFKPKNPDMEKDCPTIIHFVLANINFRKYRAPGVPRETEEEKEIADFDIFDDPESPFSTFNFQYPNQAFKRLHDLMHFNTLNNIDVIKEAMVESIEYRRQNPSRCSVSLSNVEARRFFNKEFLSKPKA
- Assay overview: Inhibition of human group-4A cPLA2 at 0.091 mole fraction by mixed micellar assay
Assign inhibition to each entry below.
Answers are plain numbers, in %.

Here is how some molecules turned out for inhibition.
[[record]]
structure_string = "CCCCCCCCCCCCCCC(=O)C(=O)N[C@@H](CCCC)C(=O)NCC(=O)OC(C)(C)C"
quantity_name = "inhibition"
assay_result = 72

[[record]]
structure_string = "CCCCCCCCCCCCCCC(=O)C(=O)N[C@@H](CCCC)C(=O)NCC(=O)OCC"
quantity_name = "inhibition"
assay_result = 73

[[record]]
structure_string = "CCCCCCCCCCCCCCC(=O)C(=O)N[C@H](C(=O)NCC(=O)OC)C(C)C"
quantity_name = "inhibition"
assay_result = 25

[[record]]
structure_string = "CCCCCCCCCCCCCCC(=O)C(=O)N[C@@H](CCCC)COCC(=O)OCC"
quantity_name = "inhibition"
assay_result = 52


Lookup result for CCCCCCCCCCCCCCC(=O)C(=O)N[C@@H](CCCC)COCC(=O)OC(C)(C)C ; measured inhibition: 44
